method-summary: Inhibition of HIV1 reverse transcriptase K103N mutant by HeLa-MAGI assay
Listed here: items and their measured IC50.
Reply with the number and its unit after it.

IC50 reading for CC(C)c1s/c(=N\S(=O)(=O)c2cc(C#N)ccc2C#N)n(C)c1Cl : 3020 nM

IC50 reading for CNS(=O)(=O)c1ccc(NC(=O)COc2ccc(Cl)cc2C(=O)c2cc(F)cc(C(F)(F)F)c2)c(C)c1 : 2 nM

IC50 reading for Cc1cc(Cl)cc(C(=O)c2cc(Cl)ccc2OCC(=O)Nc2ccc(S(N)(=O)=O)cc2C)c1 : 3.6 nM

IC50 reading for Cc1cc(N2CC[S+]([O-])CC2)ccc1NC(=O)COc1ccc(Cl)cc1C(=O)c1ccc(C#N)cc1 : 44 nM

IC50 reading for Cc1cc(S(N)(=O)=O)ccc1NC(=O)COc1ccc(Cl)cc1C(=O)c1cncc(C#N)c1 : 141 nM

IC50 reading for COc1ccc(NC(=O)COc2ccc(Cl)cc2C(=O)c2cc(F)cc(F)c2)cn1 : 72 nM

IC50 reading for Cc1cc(N2CC[S+]([O-])CC2)ccc1NC(=O)COc1ccc(Cl)cc1C(=O)c1ccccc1C#N : 155 nM

IC50 reading for Cc1ccccc1NC(=O)COc1ccc(Cl)cc1C(=O)c1cc(F)cc(F)c1 : 38 nM

IC50 reading for Cc1cc(S(N)(=O)=O)ccc1NC(=O)COc1ccc(Cl)cc1C(=O)c1cc(Br)cc(C(F)(F)F)c1 : 93 nM

* * *

method-summary: Inhibition of HIV1 reverse transcriptase K103N mutant by HeLa-MAGI assay
Listed here: items and their measured pIC50.
Please keep in mind that pIC50 is minus log10 of the molar concentration; only the number is needed.

{"columns": ["given-smiles", "reported-measurement"],
 "data": [
  ["Cc1cc(S(N)(=O)=O)ccc1NC(=O)COc1ccc(Cl)cc1C(=O)c1cccc(C#N)c1", 8.82]
]}

Next, consider the following compound.
pIC50 reading for Cc1c(C(C)(C)C)s/c(=N\S(=O)(=O)c2cccc(Cl)c2)n1C : 5.00

* * *

method-summary: Inhibition of HIV1 reverse transcriptase K103N mutant by HeLa-MAGI assay
pIC50: −log10 of the molar value.
The threshold is inclusive: pIC50 of exactly 7 counts as 1; values below receive 0.

Use the examples below as a reference point.
{"columns": ["compound", "label-value"],
 "data": [
  ["CC(C)c1s/c(=N\\S(=O)(=O)c2cc(Br)ccc2O)n(C)c1Cl", 1],
  ["Cc1cc(S(N)(=O)=O)ccc1NC(=O)COc1ccc(Cl)cc1C(=O)c1cc(Cl)cc(C#N)c1", 1],
  ["CC(C)c1s/c(=N\\S(=O)(=O)c2cccc([N+](=O)[O-])c2)n(C)c1Cl", 0],
  ["Cc1c(C(C)(C)C)s/c(=N\\S(=O)(=O)c2ccccc2O)n1C", 0],
  ["Cc1c(C(C)C)s/c(=N\\S(=O)(=O)c2cccc([N+](=O)[O-])c2)n1C", 0]
]}

Record Cc1[nH]/c(=N/S(=O)(=O)c2cccc([N+](=O)[O-])c2)sc1C(C)(C)C ; criterion: pIC50 no lower than 7. Met?
0

Record Cc1c(C(C)C)s/c(=N\S(=O)(=O)c2cc(Cl)ccc2C#N)n1C ; criterion: pIC50 no lower than 7. Met?
0

Record Cc1c(C(C)(C)C)s/c(=N\S(=O)(=O)c2cc(Cl)ccc2N)n1C ; criterion: pIC50 no lower than 7. Met?
0

Record COc1cc(OC)cc(C(=O)c2cc(Cl)ccc2OCC(=O)Nc2ccc(S(N)(=O)=O)cc2C)c1 ; criterion: pIC50 no lower than 7. Met?
0

Record Cc1c(C(C)C)s/c(=N\S(=O)(=O)c2cc(C#N)ccc2C#N)n1C [thiazolidenebenzenesulfonamide deriv.] ; criterion: pIC50 no lower than 7. Met?
0

Record Cc1nc(S(N)(=O)=O)ccc1NC(=O)COc1ccc(Cl)cc1C(=O)c1cc(Cl)cc(C#N)c1 ; criterion: pIC50 no lower than 7. Met?
1

Record Cc1cc(OCCCS(N)(=O)=O)ccc1NC(=O)COc1ccc(Cl)cc1C(=O)c1cc(F)cc(C(F)(F)F)c1 ; criterion: pIC50 no lower than 7. Met?
1

Record Cc1cc(S(N)(=O)=O)ccc1NC(=O)COc1ccc(Cl)cc1C(=O)c1cc(F)cc(C(F)(F)F)c1 ; criterion: pIC50 no lower than 7. Met?
1

Record CC(C)c1s/c(=N\S(=O)(=O)c2cc(Cl)ccc2C#N)n(C)c1Cl ; criterion: pIC50 no lower than 7. Met?
0
